Entries and their melting point

CN1CC(CNNC(=S)Nc2ccccc2)CC2c3cccc4[nH]cc(c34)CC21 (stereo not given) = 205 to 206 °C
CN(C)C=Nc1ccc(-n2ncnc2-c2ccccc2)cc1 = 109 to 111 °C
N=C(N)Nc1nc(CSCCNC2=NS(=O)(=O)N=C2N)cs1 = 134 to 149 °C
CSc1ccccc1-c1cc2c(ccn2C)c2c1C(=O)NC2=O = 272 to 274 °C

[in] Sample O=S(=O)(CCN1CCCCC1)Nc1cc(C(c2cc(F)ccc2F)S(=O)(=O)c2ccc(Cl)cc2)c(Cl)cn1 (stereo not given) — what was its melting point?
[out] 200 to 203 °C
